Hey, just so you know, these numbers are from patent US20260001847A1.

system: Echinochloa crus-galli (ECHCG); test: Post-emergence Test; type: in vivo; conditions: 1000 g/ha, evaluated after 13 days
Reported endpoint: percentage damage caused to the plant, ECHCG

[[record]]
compound = "CC(=O)c1cccc2c1c(=O)c(C(=O)O)cn2-c1ccc(OC(F)(F)F)cc1 [Compound 19]"
target_desc = "Echinochloa crus-galli (ECHCG)"
reported_value = "4 (4=61-80%)"

[[record]]
compound = "CCn1c(-c2ccc(F)cc2)c(C(=O)O)c(=O)c2ccccc21 [Compound 18]"
target_desc = "Echinochloa crus-galli (ECHCG)"
reported_value = "1 (1=0-20%)"

[[record]]
compound = "CCn1c(-c2ccc(Cl)c(Cl)c2)c(C(=O)O)c(=O)c2c(Br)cccc21 [Compound 4]"
target_desc = "Echinochloa crus-galli (ECHCG)"
reported_value = "1 (1=0-20%)"

[[record]]
compound = "CCn1c(-c2ccc(Cl)c(Cl)c2)c(C(=O)O)c(=O)c2ccc(OC)cc21 [Compound 1]"
target_desc = "Echinochloa crus-galli (ECHCG)"
reported_value = "1 (1=0-20%)"

